system_under_test: T1, FZD3 cysteine-rich domain (CRD), MYC-tagged and GPI-anchored on CHO cells (human, UniProt Q9NPG1 24-150, GPI anchor)
T1 construct: domain: cysteine-rich domain (CRD); also called FZD3 CRD; CHO-myc-FZDGPI; not shown: MYC tag and GPI anchor signal
T1 sequence (looked up): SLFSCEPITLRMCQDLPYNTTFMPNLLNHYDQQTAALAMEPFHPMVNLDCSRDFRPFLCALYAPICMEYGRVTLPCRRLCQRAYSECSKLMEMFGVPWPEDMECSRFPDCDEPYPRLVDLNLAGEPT
assay_text: flow cytometry, CHO-CRD cells;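 further: flow cytometry of Fab binding to CHO cells overexpressing a Frizzled CRD, with binding defined as median fluorescence over twice that of CHO cells lacking any Frizzled CRD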
assay_endpoint: median fluorescence

Req: What value of measured median fluorescence is listed for Fab-2924 (Fab, V domains shown, Fab; also called Fv-2924) VH: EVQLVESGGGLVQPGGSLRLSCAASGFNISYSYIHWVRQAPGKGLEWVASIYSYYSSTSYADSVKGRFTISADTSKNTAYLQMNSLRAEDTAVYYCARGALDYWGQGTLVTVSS VL: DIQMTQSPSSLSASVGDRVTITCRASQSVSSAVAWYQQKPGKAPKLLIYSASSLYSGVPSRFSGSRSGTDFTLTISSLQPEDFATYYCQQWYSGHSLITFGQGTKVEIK ?
Resp: 4.7
